Entries and their measured pre-steady-state target cleavage rate follow.
- System: MILI (PIWIL2) piRISC loaded with L1MC piRNA (26 nt);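 further: 1 nM active piRISC with 0.1 nM target library at 33 °C single turnover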
- PROCEDURE TEXT: pre-steady-state target cleavage rate (min^-1); guide: L1MC piRNA 5'p-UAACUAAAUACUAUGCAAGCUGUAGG; MIWI and MILI are mouse PIWI proteins and EfPiwi is from a freshwater sponge; tags in brackets are library labels; higher = faster piRNA-guided slicing of the target
- RUN PARAMETERS: auxiliary factor: 500 nM mouse GTSF1
PARAMETER MEASURED: pre-steady-state target cleavage rate

> print(dat)
                      residue.codes                     parameter.measured  qualifier.sign  test.result
 1   UCCUGGAACAGGUUGCAUAGUAUUUAGUUA  pre-steady-state target cleavage rate               =        0.308
 2   UCCUCCUACAGCUUGCAUAGUAUUUACUUA  pre-steady-state target cleavage rate               =        0.206
 3   UCCUGGAACAGCUAGCAUAGAAUUUAGUUA  pre-steady-state target cleavage rate               =       0.0486
 4   UCCUGGUACAGCUUGCAUAGUUUUUACAAA  pre-steady-state target cleavage rate               =       0.0185
 5  UCCUGGAACAGCUUGCACUAGUAUUUAGUUA  pre-steady-state target cleavage rate               =       0.0388
 6   UCCUGGAUGUGCUUCGUUAGUAUUUAGAAA  pre-steady-state target cleavage rate               <       0.0001
 7   UCCUGCAACAGCUUGCAUAGUAUUUUCAAA  pre-steady-state target cleavage rate               =        0.104
 8   UCCUCCUAGAGCUUGCAUAGUAUUUAGAAA  pre-steady-state target cleavage rate               =        0.069
 9  UCCUGGAUGUCCUUGCAUAGAUAUUUAGUUA  pre-steady-state target cleavage rate               =      0.00754
10   UCCUGGUACAGCUUGGAUAGUAUUAAGUUA  pre-steady-state target cleavage rate               =        0.174
11   UCCUGGAUGAGCUUGGAUAGUAUUUAGUUA  pre-steady-state target cleavage rate               =        0.163
12   UCCUGGAUCAGCUUGCAAAGUAUUUACAAA  pre-steady-state target cleavage rate               =       0.0432
13   UCCUCCUACUGCUUGCAUAGUAAUUAGUUA  pre-steady-state target cleavage rate               =          0.2
14   UCCUGGAUCUCCUUGCAUAGUAUUUAGUUA  pre-steady-state target cleavage rate               =        0.226
15   UCCUCCUACAGCUUGCAUACUAUUAAGUUA  pre-steady-state target cleavage rate               =       0.0631
16   UCCUGCUACAGCUUGCUAUGUAUUUAGUUA  pre-steady-state target cleavage rate               =       0.0638
17   UCCUGGAUGAGCUUGCAAAGUUUUUAGUUA  pre-steady-state target cleavage rate               =      0.00724
18   UCCUGGAUCAGCUUGCAAUCUAUUUAGUAA  pre-steady-state target cleavage rate               =       0.0108
19  UCCUGCUACAGCUUGCAUAGUUAUUUAGUUA  pre-steady-state target cleavage rate               =       0.0195
20   UCCUCCUACAGCUUGCAUAUUAUUUAGUUA  pre-steady-state target cleavage rate               =       0.0824
21   UCCUCCUACAGCAUGCUUAGUAUUUAGUUA  pre-steady-state target cleavage rate               =        0.206
22   UCCUGGAUGACCAUGCAUAGUAUUUAGUUA  pre-steady-state target cleavage rate               =       0.0729
23  UCCUCCUACAGCCUUGCAUAGUAUUUAGUUA  pre-steady-state target cleavage rate               =        0.262
24  UCCUCCUACGAGCUUGCAUAGUAUUUAGUUA  pre-steady-state target cleavage rate               =        0.163
25   UCCUGGAUCAGCUUGCAAUGUAUUUACAAA  pre-steady-state target cleavage rate               =       0.0196
26   UCCUCCUACACCUUGCAAAGUAUUUAGUUA  pre-steady-state target cleavage rate               =        0.118
27    UCCUGGAUGAGCUUGCAUGUAUUUAGUUA  pre-steady-state target cleavage rate               =       0.0097
28  UCCUGGAACAAGCUUGCAUAGUAUUUAGUUA  pre-steady-state target cleavage rate               =        0.224
29  UCCUCCUACAGCUUGCAUUAGUAUUUAGUUA  pre-steady-state target cleavage rate               =       0.0229
30  UCCUGGAUCAGCUUGCAUAGUAUUUAGUAUA  pre-steady-state target cleavage rate               =        0.233
31   UCCUCCUACAGCUUGCAUAGUAUAUUGUUA  pre-steady-state target cleavage rate               =        0.128
32   UCCUGGAUGUCCAUGCAUAGUAUAUAGUUA  pre-steady-state target cleavage rate               =       0.0181
33   UCCUGGAACUCGUUGCAUAGUAUUUAGUUA  pre-steady-state target cleavage rate               =        0.154
34   UCCUCCAACAGCUUGCAUAGUAUUUACUUA  pre-steady-state target cleavage rate               =        0.122
35   UCCUGGAUGUCGAACGAUGGUAUUUAGUUA  pre-steady-state target cleavage rate               <       0.0001
36   UCCUGGAUGAGCUUGCAUAGUUUUUACUUA  pre-steady-state target cleavage rate               =      0.00548
37   UCCUGGAUGUGCUUGCAUAGAAUAUAGUUA  pre-steady-state target cleavage rate               =      0.00814
38  UCCUGGAUGUCGAUGCAUAGUAUGUUAGUUA  pre-steady-state target cleavage rate               =       0.0347
39   UCCUCCUACAGCUUGCAUAAUAUUUAGUUA  pre-steady-state target cleavage rate               =        0.292
40   UCCUGGAACUGCUUGCAUAGUAUUUUCAAA  pre-steady-state target cleavage rate               =       0.0118
41   UCCUGGAUGUGCUAGCAUAGUAUUUACUUA  pre-steady-state target cleavage rate               =       0.0865
42   UCCUCCUAGAGCUUGCUUAGUAUUUAGUUA  pre-steady-state target cleavage rate               =        0.261
43   UCCUGCUACAGCUUGCAUAGUAUUUAGUGA  pre-steady-state target cleavage rate               =        0.193
